Target: SIX1-Q177R homeodomain (human, UniProt Q15475 108-198, Q177R)
Sequence: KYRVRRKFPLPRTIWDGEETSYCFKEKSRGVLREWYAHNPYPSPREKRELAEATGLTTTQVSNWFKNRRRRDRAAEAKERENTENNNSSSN
Assay: universal protein binding microarray; Universal all-10-mer PBM (8x60K, AMADID 030236), 300 nM GST-tagged protein, Alexa Fluor 488 anti-GST; buffer, salt, pH and temperature not stated (as in Berger); high values mean tight binding
Details: protein: ivt; tags: N-terminal GST; dsDNA, one strand shown
Whole data set: some 33,000 sequences, median “e-score” near -0.05, cut for the highest 2% near 0.38. Shown is part of a subset that was picked to be rich in the highest values.
value-type: binding signal (E-score)
One number for each entry, in E-score.

Worked set:
{"sequence-record": "GGTGCCAC", "binding signal (E-score)": 0.195}
{"sequence-record": "ACCCAGGG", "binding signal (E-score)": 0.201}
{"sequence-record": "ACCGACTC", "binding signal (E-score)": 0.204}

We now examine a further sequence.
Exercise: What binding signal value was documented for this sequence, GTAATCGA ?
Key: 0.204

* * *

Target: SIX1-Q177R homeodomain (human, UniProt Q15475 108-198, Q177R)
Sequence: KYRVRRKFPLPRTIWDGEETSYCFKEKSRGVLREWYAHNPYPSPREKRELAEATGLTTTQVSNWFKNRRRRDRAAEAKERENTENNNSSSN
Assay: universal protein binding microarray; Universal all-10-mer PBM (8x60K, AMADID 030236), 300 nM GST-tagged protein, Alexa Fluor 488 anti-GST; buffer, salt, pH and temperature not stated (as in Berger); high values mean tight binding
Conditions: protein: ivt; tags: N-terminal GST; dsDNA, one strand shown
In all, about 33,000 sequences were measured (“e-score”: median about -0.05, highest 2% from about 0.38 on). Shown is part of a subset that was picked to be rich in the highest values.
value-type: binding signal (E-score)
Numbers only, in E-score.

Worked set:
{"sequence-record": "AAAACACG", "units-symbol": "E-score", "binding signal": 0.321}
{"sequence-record": "AAACTACA", "units-symbol": "E-score", "binding signal": 0.184}
{"sequence-record": "CACTTGTC", "units-symbol": "E-score", "binding signal": 0.161}
{"sequence-record": "AAAACACA", "units-symbol": "E-score", "binding signal": 0.188}

# per-item lookup of binding signal; items listed below
1. GTCGTGCA
2. CAGTATCA
3. ACCAGGTA
4. CGAAAACA
5. AGGTATCA
6. CCCCCCGG
7. ATGTCGGG

Key:
0.181
0.2
0.241
0.186
0.324
0.254
0.199

# per-item lookup of binding signal; items listed below
1. GTGTATTA
2. ACCGAACC
3. CACCGAAG
4. GGTCGTAC
5. CCCACCCG

Key:
0.401
0.197
0.283
0.224
0.194

# per-item lookup of binding signal; items listed below
1. CCACACCG
2. GTGGATCA
3. CGGTATCA

Key:
1. 0.363
2. 0.161
3. 0.312

* * *

Target: SIX1-Q177R homeodomain (human, UniProt Q15475 108-198, Q177R)
Sequence: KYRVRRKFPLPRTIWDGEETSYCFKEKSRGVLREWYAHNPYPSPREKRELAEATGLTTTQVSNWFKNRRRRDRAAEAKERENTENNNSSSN
Test: universal protein binding microarray; Universal all-10-mer PBM (8x60K, AMADID 030236), 300 nM GST-tagged protein, Alexa Fluor 488 anti-GST; buffer, salt, pH and temperature not stated (as in Berger); high values mean tight binding
Settings: protein: ivt; tags: N-terminal GST; dsDNA, one strand shown
Over roughly 33,000 sequences, “e-score” has its median near -0.05; the highest 2% begin near 0.38. This excerpt belongs to a sample that is enriched for the highest values.
value-type: binding signal (E-score)
Give bare numbers, in E-score.

Worked set:
{"sequence-record": "AGGTAGTG", "units-symbol": "E-score", "binding signal": 0.249}
{"sequence-record": "ACGCACGA", "units-symbol": "E-score", "binding signal": 0.277}
{"sequence-record": "CAGTCGGG", "units-symbol": "E-score", "binding signal": 0.196}
{"sequence-record": "TGAACACA", "units-symbol": "E-score", "binding signal": 0.173}
{"sequence-record": "CAGATACA", "units-symbol": "E-score", "binding signal": 0.313}

# per-item lookup of binding signal; items listed below
1. ACCGAGTG
2. CAGCACCC

Key:
1. 0.363
2. 0.188

# per-item lookup of binding signal; items listed below
1. CGTCCTAC
2. CACCAGCG
3. GGGCGACA
4. AGAGTGTG
5. CTTCTACC
6. ACGCGGCG
7. CAGGCAGG

Key:
1: 0.182; 2: 0.22; 3: 0.156; 4: 0.247; 5: 0.203; 6: 0.229; 7: 0.186

# per-item lookup of binding signal; items listed below
1. TGGGGTAA
2. CGGGTCTC
3. CCAACTAG

Key:
[0.26, 0.207, 0.223]

# per-item lookup of binding signal; items listed below
1. GTTGGGGA
2. AGTGTGGC
3. CACTCGGC
4. AGTCAGAG
5. ACCCGCGA
6. AGTGTAGG
7. AATAGGTG
8. TGTCCACA

Key:
0.218
0.193
0.237
0.156
0.239
0.411
0.207
0.205
